- test.target: human TLR7 (Homo sapiens)
- procedure.summary: Human TLR7 agonist activity assay (HEK-Blue TLR7 SEAP reporter)
- run.conditions: HEK-Blue TLR7 cells, 18 h treatment, in some instances average of plural assays, read-out: hTLR7 EC50
EC50 values, listed per item
Respond numerically; units are nM and should not be typed.

CCCCNc1nc(N)nc2cnn(Cc3ccc(Oc4ccc(CO)cc4)cc3OC)c12; 569

Identify measured EC50 corresponding to CCCCNc1nc(N)nc2cnn(Cc3ccc(Oc4ccc(CNCCO)cc4)cc3OC)c12 43.8

Identify measured EC50 corresponding to CCCCNc1nc(N)nc2cnn(Cc3ccc(CN4CCN(CCO)CC4)cn3)c12 2030

Identify measured EC50 corresponding to CCCCNc1nc(N)nc2cnn(Cc3ccc(CN4CCN(CCO)CC4)cc3F)c12 1800

Identify measured EC50 corresponding to CCC[C@@H](CCO)Nc1nc(N)nc2cnn(Cc3ccc(CNC4(C)CCOCC4)cc3OC)c12 33

Identify measured EC50 corresponding to CCCCNc1nc(N)nc2cnn(Cc3ccc(CNCCOC)cc3OC)c12 182

Identify measured EC50 corresponding to CCCCNc1nc(N)nc2cnn(Cc3ccc(CNC4(CO)CCCC4)cc3OC)c12 121

Identify measured EC50 corresponding to CCCCNc1nc(N)nc2cnn(Cc3ccc(Oc4ccc(CNCC(C)(C)O)cc4)cc3OC)c12 11.5

---

- test.target: human TLR7 (Homo sapiens)
- procedure.summary: Human TLR7 agonist activity assay (HEK-Blue TLR7 SEAP reporter)
- run.conditions: HEK-Blue TLR7 cells, 18 h treatment, in some instances average of plural assays, read-out: hTLR7 EC50
pEC50 values, listed per item
// field semantics: pEC50 = negative decimal log of concentration (mol/L)

CCCCNc1nc(N)nc2cnn(Cc3ccc(CN4CC(CCO)C4)cc3OC)c12 [Compound 815]; 7.48
CCC[C@@H](CCO)Nc1nc(N)nc2cnn(Cc3ccc(CN4C[C@@H]5C[C@H]4CN5)cc3OC)c12 [Compound 843]; 7.25
CCCCNc1nc(N)nc2cnn(Cc3ccc(CN4CCCC4)cc3OC)c12 [Compound 833]; 7.51
CCC[C@@H](CCO)Nc1nc(N)nc2cnn(Cc3ccc(CN4CC(F)(F)C4)cc3OC)c12 [Compound 862]; 7.96
CCCCNc1nc(N)nc2cnn(Cc3ccc(Oc4ccc(CNC5CCOCC5)cc4)cc3OC)c12 [Compound 858]; 7.97
CCCCNc1nc(N)nc2cnn(Cc3ccc(Oc4ccc(CNC5CCC5)cc4)cc3OC)c12 [Compound 860]; 7.71

Identify measured pEC50 corresponding to CCCCNc1nc(N)nc2cnn(Cc3ccc(CN4CCCNCC4)cc3OC)c12 [Compound 821] 7.47

Identify measured pEC50 corresponding to CCCCNc1nc(N)nc2cnn(Cc3ccc(CNC(C)(C)C)cc3OC)c12 [Compound 828] 7.01

---

- test.target: human TLR7 (Homo sapiens, UniProt Q9NYK1)
- Sequence (Q9NYK1 27-1049): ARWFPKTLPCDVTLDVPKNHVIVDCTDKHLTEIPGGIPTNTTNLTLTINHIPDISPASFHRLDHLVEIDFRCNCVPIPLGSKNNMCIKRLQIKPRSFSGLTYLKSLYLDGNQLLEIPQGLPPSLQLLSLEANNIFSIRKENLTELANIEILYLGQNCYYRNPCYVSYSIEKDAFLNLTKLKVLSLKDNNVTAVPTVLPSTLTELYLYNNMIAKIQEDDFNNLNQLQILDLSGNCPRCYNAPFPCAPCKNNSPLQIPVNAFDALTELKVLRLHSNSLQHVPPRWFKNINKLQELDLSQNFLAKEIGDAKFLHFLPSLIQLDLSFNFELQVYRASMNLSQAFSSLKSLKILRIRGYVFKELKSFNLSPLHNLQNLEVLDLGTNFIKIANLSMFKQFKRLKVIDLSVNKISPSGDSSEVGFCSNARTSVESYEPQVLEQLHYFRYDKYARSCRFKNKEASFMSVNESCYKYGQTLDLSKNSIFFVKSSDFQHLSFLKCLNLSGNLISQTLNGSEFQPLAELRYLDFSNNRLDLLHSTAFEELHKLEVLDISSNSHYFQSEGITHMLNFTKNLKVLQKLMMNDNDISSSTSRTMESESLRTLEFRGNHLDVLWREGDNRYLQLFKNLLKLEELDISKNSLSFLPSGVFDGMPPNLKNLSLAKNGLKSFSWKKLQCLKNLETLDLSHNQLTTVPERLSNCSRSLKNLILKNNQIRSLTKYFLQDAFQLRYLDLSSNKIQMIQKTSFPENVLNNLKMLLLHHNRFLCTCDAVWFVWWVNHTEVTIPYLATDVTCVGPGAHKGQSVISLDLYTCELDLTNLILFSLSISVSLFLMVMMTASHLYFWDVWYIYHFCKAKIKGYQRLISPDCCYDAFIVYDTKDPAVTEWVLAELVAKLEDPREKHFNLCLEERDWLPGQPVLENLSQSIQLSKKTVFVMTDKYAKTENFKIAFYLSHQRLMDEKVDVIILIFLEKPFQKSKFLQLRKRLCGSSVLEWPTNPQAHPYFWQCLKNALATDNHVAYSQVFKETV
- procedure.summary: Human TLR7 agonist activity assay (HEK-Blue TLR7 SEAP reporter)
- run.conditions: HEK-Blue TLR7 cells, 18 h treatment, in some instances average of plural assays, read-out: hTLR7 EC50
pEC50 values, listed per item
// field semantics: pEC50 = negative decimal log of concentration (mol/L)

CCC[C@@H](CCO)Nc1nc(N)nc2cnn(Cc3ccc(CN4CC(OC(C)C)C4)cc3OC)c12; 8.85
CCCCNc1nc(N)nc2cnn(Cc3ccc(CNC4CCC4)cc3OC)c12; 7.23
CCCCNc1nc(N)nc2cnn(Cc3ccc(Oc4ccc(CN5CCN(C)CC5)cc4)cc3OC)c12; 7.13
CCC[C@@H](CCO)Nc1nc(N)nc2cnn(Cc3ccc(CN4CC5CNCC5C4)cc3OC)c12 (some centres unmarked); 7.52
CCOCCNc1nc(N)nc2cnn(Cc3ccc(CNC4CCC4)cc3OC)c12; 6.67

Send back human TLR7 (Homo sapiens, UniProt Q9NYK1) pEC50 of CCCCNc1nc(N)nc2cnn(Cc3ccc(CNC4CCC4)cc3F)c12 only. 6.38

Send back human TLR7 (Homo sapiens, UniProt Q9NYK1) pEC50 of CCCCNc1nc(N)nc2cnn(Cc3ncc(CNC4CCC4)cc3OC)c12 only. 6.19

Send back human TLR7 (Homo sapiens, UniProt Q9NYK1) pEC50 of CCC[C@@H](CCO)Nc1nc(N)nc2cnn(Cc3ccc(CO)cc3)c12 only. 5.69

---

EC50 values, listed per item
- test.target: human TLR7 (Homo sapiens, UniProt Q9NYK1)
- Sequence (Q9NYK1 27-1049): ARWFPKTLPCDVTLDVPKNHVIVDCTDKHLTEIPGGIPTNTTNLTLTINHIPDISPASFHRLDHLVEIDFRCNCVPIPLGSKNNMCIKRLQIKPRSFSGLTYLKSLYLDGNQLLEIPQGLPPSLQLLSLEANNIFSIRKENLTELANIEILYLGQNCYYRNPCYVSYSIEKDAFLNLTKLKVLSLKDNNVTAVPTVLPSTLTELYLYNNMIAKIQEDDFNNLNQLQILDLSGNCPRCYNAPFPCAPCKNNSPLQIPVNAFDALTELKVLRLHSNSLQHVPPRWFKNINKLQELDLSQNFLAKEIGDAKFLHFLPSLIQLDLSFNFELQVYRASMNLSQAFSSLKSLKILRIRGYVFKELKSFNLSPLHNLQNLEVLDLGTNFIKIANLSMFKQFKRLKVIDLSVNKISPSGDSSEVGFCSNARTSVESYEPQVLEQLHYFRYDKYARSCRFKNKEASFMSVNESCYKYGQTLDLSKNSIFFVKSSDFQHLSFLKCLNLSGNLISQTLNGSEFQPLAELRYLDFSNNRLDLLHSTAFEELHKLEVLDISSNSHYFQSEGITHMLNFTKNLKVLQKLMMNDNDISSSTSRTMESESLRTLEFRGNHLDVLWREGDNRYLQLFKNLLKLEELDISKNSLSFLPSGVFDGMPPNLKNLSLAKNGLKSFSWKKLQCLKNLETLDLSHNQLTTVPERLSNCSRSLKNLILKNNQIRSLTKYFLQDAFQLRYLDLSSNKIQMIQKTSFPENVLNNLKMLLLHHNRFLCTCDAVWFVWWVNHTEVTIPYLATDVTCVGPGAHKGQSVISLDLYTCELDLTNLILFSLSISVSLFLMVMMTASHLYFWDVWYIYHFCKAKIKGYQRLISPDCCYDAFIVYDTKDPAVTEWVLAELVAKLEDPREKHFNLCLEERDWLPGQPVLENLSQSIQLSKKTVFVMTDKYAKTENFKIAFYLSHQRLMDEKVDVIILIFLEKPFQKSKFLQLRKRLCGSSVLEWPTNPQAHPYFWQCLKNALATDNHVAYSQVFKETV
- procedure.summary: Human TLR7 agonist activity assay (HEK-Blue TLR7 SEAP reporter)
- run.conditions: HEK-Blue TLR7 cells, 18 h treatment, in some instances average of plural assays, read-out: hTLR7 EC50
Respond numerically; units are nM and should not be typed.

CCCCNc1nc(N)nc2cnn(Cc3ccc(CN4CCNCC4)cn3)c12; 1620
CCC[C@@H](CCO)Nc1nc(N)nc2cnn(Cc3ccc(CN4CCc5cnccc5C4)cc3OC)c12; 4.6
CCCCNc1nc(N)nc2cnn(Cc3ccc(CN4CCCNCC4)cc3OC)c12 [Compound 845]; 21.2
CCC[C@@H](CCO)Nc1nc(N)nc2cnn(Cc3ccc(CN4CC5(CNC5)C4)cc3OC)c12; 89
CCCCNc1nc(N)nc2cnn(Cc3ccc(CNCC(C)(C)O)cc3OC)c12; 41.4

Identify measured EC50 corresponding to CCCCNc1nc(N)nc2cnn(Cc3ccc(CNC4CCC(O)CC4)cc3OC)c12 (stereo not drawn) 41.4

Identify measured EC50 corresponding to CCC[C@H](CCO)Nc1nc(N)nc2cnn(Cc3ccc(CNC4CCC4)cc3OC)c12 32.7

Identify measured EC50 corresponding to CCCCNc1nc(N)nc2cnn(Cc3ccc(CNc4ccc(CCO)cc4)cc3OC)c12 244

Identify measured EC50 corresponding to CCC[C@@H](CCO)Nc1nc(N)nc2cnn(Cc3ccc(CNCc4ccncc4)cc3OC)c12 2.4
